Test system: Plasmodium berghei
Test: Antimalarial effect against trophozoite-induced Plasmodium berghei in mice (Mus musculus) at 320 mg/kg subcutaneous dose
Type: functional
Provide the reported MST of each item.

Worked examples follow.
Molecule	Test system	MST
CCN(CC)CCCNc1nc(Nc2ccc(C(F)(F)F)cc2)c2ccccc2n1	Plasmodium berghei	9.2 days
C=C[C@H]1CN2CC[C@H]1C[C@H]2[C@H](O)c1ccnc2ccc(OC)cc12	Plasmodium berghei	3.2 days
CCN1CCCC(Nc2nc(Nc3ccc(Cl)c(Cl)c3)nc3cc(Cl)ccc23)C1 (centres undefined)	Plasmodium berghei	0.3 days

# query: MST of entry CCN(CC)C1CCC(Nc2nc(Nc3ccc(SC)cc3)c3ccccc3n2)CC1 (centres undefined)
11.7 days

###

System: Mus musculus
Experiment: Number of toxic deaths at a dose of 640 mg/kg
Assay type: toxicity, organism-based
Design: dose 640 mg/kg
Settings: in vivo
Please provide measured No. of toxic deaths for the entries that follow.
Numbers only.

Take a look at these entries with their results.
CCOc1ccc(Nc2nc(NCCN(CC)CC)c3ccc(Cl)cc3n2)cc1CN(CC)CC 5
CCN(CC)CCNc1nc(Nc2ccc(OC)c(CN(CC)CC)c2)nc2ccccc12 1
c1ccc2c(NCCCN3CCCC3)nc(Nc3nccs3)nc2c1 3

For each of the compounds below, note its No. of toxic deaths.
1. CCOc1ccc(Nc2nc(NCCN(CC)CC)c3cc(Cl)ccc3n2)cc1CN1CCCC1
2. CC1(C)N=C(N)N=C(N)N1c1ccc(Cl)cc1

[3, 5]

###

Test system: Plasmodium berghei
Experiment: Antimalarial effect against trophozoite-induced Plasmodium berghei in mice (Mus musculus) at 320 mg/kg subcutaneous dose
Type: functional
I'd appreciate it if you could supply MST values for the items below.
Numbers only, in days.

Use these answered entries as a reference point.
Compound	MST (days)
CCN1CCCC(Nc2nc(Nc3ccc(Cl)c(Cl)c3)c3ccccc3n2)C1 (configuration not stated)	2.9
CN1CCCC1CCNc1nc(Nc2ccc(Cl)c(Cl)c2)c2ccccc2n1 (configuration not stated)	11.2
OC1CCCN(CCCNc2nc(Nc3ccc(I)cc3)nc3ccccc23)C1 (configuration not stated)	13.1
CN1CCCC1CCNc1nc(Nc2ccc(C(F)(F)F)cc2)nc2ccccc12 (configuration not stated)	15.5
CCN(CC)C1CCC(Nc2nc(Nc3ccc(I)cc3)c3ccccc3n2)CC1 (configuration not stated)	9.9
CN1CCCC1CCNc1nc(Nc2ccc(Cl)c(Cl)c2)nc2ccccc12 (configuration not stated)	20.8

For every item below, please supply its MST.
1. CCN1CCCC(Nc2nc(Nc3cc(Cl)cc(Cl)c3)c3ccccc3n2)C1 (configuration not stated)
2. CN1CCCC1CCNc1nc(Nc2ccc(Cl)cc2)nc2ccccc12 (configuration not stated)
3. CCN(CC)CCCC(C)Nc1nc(Nc2ccc(Cl)c(Cl)c2)c2ccccc2n1 (configuration not stated)
4. CCN(CC)C1CCC(Nc2nc(Nc3ccc(Cl)c(Cl)c3)nc3ccccc23)CC1 (configuration not stated)

[2.4, 14.4, 1.3, 22.9]

###

Tested on: Plasmodium berghei
Experiment: Antimalarial effect against trophozoite-induced Plasmodium berghei in mice (Mus musculus) at 80 mg/kg subcutaneous dose
Type: functional
Observation type: MST
Show the value, then the unit it is measured in.

Look over these answered cases.
Compound	MST
FC(F)(F)c1ccc(Nc2nc(NCCN3CCCC3)c3ccccc3n2)cc1	2.4 days
Clc1cc(Cl)cc(Nc2nc(NCCN3CCCC3)c3ccccc3n2)c1	1.7 days
CCN1CCCC(Nc2nc(Nc3ccc(Cl)c(Cl)c3)c3ccccc3n2)C1 (stereo not given)	0.9 days

Hey, quick one: what's MST for each of these?
1. CCN(CC)CCNc1nc(Nc2ccc(Cl)c(Cl)c2)nc2ccc(N)cc12
2. CN1CCCC1CCNc1nc(Nc2ccc(Cl)c(Cl)c2)nc2ccc(Cl)cc12 (stereo not given)

1. 6.8 days
2. 2.7 days

Respectfully, I request MST for each entry included below.
1. CN1CCCC1CCNc1nc(Nc2ccc(C(F)(F)F)cc2)nc2ccccc12 (stereo not given)
2. OC1CCCN(CCCNc2nc(Nc3ccc(I)cc3)nc3ccccc23)C1 (stereo not given)
3. CCN(CC)C1CCC(Nc2nc(Nc3cc(Cl)cc(Cl)c3)c3ccccc3n2)CC1 (stereo not given)
4. Clc1cccc(Nc2nc(NCCN3CCCC3)c3ccccc3n2)c1
5. CCN(CC)CCCNc1nc(Nc2ccc(Cl)c(Cl)c2)c2ccccc2n1

3.2 days
4 days
0.5 days
1.4 days
2.8 days

###

What No. of toxic deaths was measured for each of the following?
Tested on: Mus musculus
Assay: Number of toxic deaths at a dose of 320 mg/kg
Assay type: toxicity, organism-based
Set-up: dose 320 mg/kg
Details: in vivo
Answers are plain numbers.

Compound	Observation type	Recorded number
CCOc1ccc(Nc2nc(NCCN(CC)CC)c3cc(Cl)ccc3n2)cc1CN(CC)CC	No. of toxic deaths	4
CCN(CC)CCNc1nc(Nc2ccc(Cl)cc2)nc2ccccc12	No. of toxic deaths	2
CCOc1ccc(Nc2nc(NCCN(CC)CC)c3cc(Cl)ccc3n2)cc1CN1CCCC1	No. of toxic deaths	2

I have 3 compounds here; please give me No. of toxic deaths for each one.
1. CCN(CC)Cc1cc(Nc2nc(NCCN3CCCC3)c3ccccc3n2)ccc1O
2. CCN(CC)Cc1cc(Nc2nc(NC3CCC(N(C)C)CC3)c3ccccc3n2)ccc1OC (stereo unspecified)
3. CCN(CC)CCNc1nc(Nc2ccc(OC)c(CN(CC)CC)c2)nc2ccccc12

1: 1; 2: 5; 3: 1

###

Can you tell me No. of cured for the items I'm about to list?
Test system: Mus musculus
Assay: Number of mice cured at a subcutaneous dose of 640 mg/kg.
Type: functional
Numbers only.

Example entries and their recorded answers appear below.
Molecule	Recorded number
CCN(CC)C1CCC(Nc2nc(Nc3cc(Br)cc(Br)c3)nc3ccccc23)CC1 (centres undefined)	5
CCN(CC)Cc1cc(Nc2nc(NC3CCC(N(C)C)CC3)c3ccccc3n2)ccc1OC (centres undefined)	3
CCN(CC)C1CCCC(Nc2nc(Nc3ccc(Cl)c(Cl)c3)nc3ccccc23)C1 (centres undefined)	5

# ---- query molecule ----
Which No. of cured value belongs to CCN(CC)C1CCC(Nc2nc(Nc3cc(Cl)cc(Cl)c3)nc3ccccc23)CC1 (stereo in doubt; 34) ?
5

###

Test system: Plasmodium berghei
Assay: Antimalarial effect against trophozoite-induced Plasmodium berghei in mice (Mus musculus) at 80 mg/kg subcutaneous dose
Assay type: functional
Observation type: MST (days)
One number for each entry, in days.

Quick request: MST for each listed item, please.
1. CN(C)C1CCC(Nc2nc(Nc3ccc(Cl)c(Cl)c3)c3ccccc3n2)CC1 (stereo not given)
2. Clc1ccc(Nc2nc(NCCCN3CCCCC3)nc3ccccc23)cc1Cl
3. CCN(CC)CCNc1nc(Nc2ccc(Cl)c(Cl)c2)c2ccccc2n1

1: 7.9; 2: -0.4; 3: 0.2

For each of the items listed, what is its MST?
1. CN(C)C1CCC(Nc2nc(Nc3cc(Cl)cc(Cl)c3)c3ccccc3n2)CC1 (stereo not given)
2. CCN(CC)CCCC(C)Nc1nc(Nc2ccc(O)c(CN(CC)CC)c2)c2ccccc2n1 (stereo not given)
3. CCN1CCCC(Nc2nc(Nc3ccc(Cl)c(Cl)c3)nc3cc(Cl)ccc23)C1 (stereo not given)
4. CN(C)C1CCC(Nc2nc(Nc3ccc(Cl)c(Cl)c3)nc3ccccc23)CC1 (stereo in doubt; 24)
5. CCN(CC)CCCC(C)Nc1nc(Nc2ccc(Cl)c(Cl)c2)c2ccccc2n1 (stereo not given)
6. CCN1CCCC(Nc2nc(Nc3ccc(Cl)c(Cl)c3)nc3ccccc23)C1 (stereo not given)
7. CCN(CC)Cc1cc(Nc2nc(NCCN3CCCC3)c3ccccc3n2)ccc1O

1. 1.2
2. 1.4
3. 0.3
4. 6.4
5. 0.3
6. 1
7. 2.1

###

System: Mus musculus
Assay: Number of mice cured at a subcutaneous dose of 320 mg/kg.
Type: functional
Observation type: No. of survivals
Give bare numbers.

Hi, could you look up No. of survivals for each item in my list?
1. CCN(CC)CCNc1nc(Nc2ccc(Cl)cc2)nc2ccccc12
2. CCN1CCC(CNc2nc(Nc3ccc(C(F)(F)F)cc3)c3ccccc3n2)CC1
3. FC(F)(F)c1ccc(Nc2nc(NCCCN3CCCC3)c3cc(Cl)ccc3n2)cc1
4. CCN(CC)CCNc1nc(Nc2ccc(OC)c(CN(CC)CC)c2)nc2ccccc12
5. CN1CCCC1CCNc1nc(Nc2ccc(Cl)c(Cl)c2)c2ccccc2n1 (stereo not given)
6. CN(C)C1CCC(Nc2nc(Nc3ccc(Cl)c(Cl)c3)c3ccccc3n2)CC1 (stereo not given)
7. CCN(CC)C1CCC(Nc2nc(Nc3ccc(I)cc3)c3ccccc3n2)CC1 (stereo not given)
8. CN1CCCC1CCNc1nc(Nc2cc(Cl)cc(Cl)c2)nc2ccc(Cl)cc12 (stereo not given)

1. 3
2. 3
3. 1
4. 2
5. 1
6. 2
7. 2
8. 1

Provide reported No. of survivals for each item, in the same order as listed.
1. CCN(CC)CCNc1nc(Nc2ccc(Cl)c(Cl)c2)nc2cc(N)ccc12
2. CCN(CC)CCNc1nc(Nc2ccc(Cl)c(Cl)c2)nc2ccc(N)cc12

[3, 5]
